B1: LINE1-full (parent)
chain: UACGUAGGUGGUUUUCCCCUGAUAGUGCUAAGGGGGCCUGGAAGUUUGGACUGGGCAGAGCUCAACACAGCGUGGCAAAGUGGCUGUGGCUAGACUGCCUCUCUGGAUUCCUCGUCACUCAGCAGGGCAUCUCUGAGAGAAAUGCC

variants of: B1; test: self-cleavage, relative activity (ratio to wild type); higher = more cleavage; in vitro, sequencing; the parent is a self-cleaving ribozyme
Param threshold (0.8) applies to self-cleavage; output T when value >= threshold, F when value < threshold.

Worked examples follow.
# MONOMER SEQUENCE, LABEL CLASS
records = [
    ("UACGUAGGUGGUUUUCCCCUGAUAGUGCUAAGGGGGCCUGGAAGUUUGGACUGGGCAGAGCCCAACACAGCGUGGCAAAGUGGCUGUGGCUUGACUGCCUCUCUGGAUUCCUCGUCACUCAGCAGGGCAUCUCUGAGAGAAAUGCC [U62C A92U]", "F"),
    ("UACGCAGGUGGUUUUCCCCUGAUAGUGCUAAGGGGGCCUGGAAGUUUGGACUGGGCAGAGCUCAACACAGCGUGGCAAAGUGGCUGUGGCUAGACUGCCUCUCUGGAUUACUCGUCACUCAGCAGGGCAUCUCUGAGAGAAAUGCC [U5C C110A]", "T"),
    ("UACGUAGGUGGUUUUCCUCUGAUAGUGCUAAGGGGGCCUGGAAGUUUGGACUGGGCAGAGCUCAACACAGCGUGGCAAAGUGGCUGUGGCUAGACUGCCUCUCCGGAUUCCUCGUCACUCAGCAGGGCAUCUCUGAGAGAAAUGCC [C18U U104C]", "F"),
]

State whether the measured self-cleavage reaches 0.8, counting equality as reaching it, for UACGUAGGUGGUUUUCCCCUGAUCGUGCUAAGGGGGCCUGGAAGUUUGGACUGGGCAGAGCUCAACACAGCGUGGCAAAGUGGCUGUGGCUAGACUGCCUCUCUGGAUUCCUCGUCACUCAGCAGGGCAUCUCUGAGAAAAAUGCC [A24C G139A] T

Does the reported self-cleavage for UACGUAGGUGGUUUUCCCCUGAUAGUGCUAAGGGGGCCUGGAAGUUUGGACUGGGCAGAGCUCAACACAGCGUGGCAAAGUGGCUGUGGCUAGACUGCCUCUCCGGAUUCCUCGUCACACAGCAGGGCAUCUCUGAGAGAAAUGCC [U104C U119A] fall at or above the 0.8 mark? T

Check this variant for self-cleavage at or above 0.8: UACGUAGGUGGUUUUCCCCUGAUAGUGCUAAGGGGGCCUGGAAGUUUGGACUGGGCAGAGCUCAACUCAGCGUGGCAAAGUGGCUGUGGCUAGACUGCCUCUCUGGAUUCCUCGUCACUCAGCAGGGCAUCUCUGGGAGAAAUGCC [A67U A136G] F
